tested.target: APOL1 G2 (Homo sapiens, UniProt O14791, DEL388-389)
Sequence (O14791 with tags, fused parts or gaps DEL388-389): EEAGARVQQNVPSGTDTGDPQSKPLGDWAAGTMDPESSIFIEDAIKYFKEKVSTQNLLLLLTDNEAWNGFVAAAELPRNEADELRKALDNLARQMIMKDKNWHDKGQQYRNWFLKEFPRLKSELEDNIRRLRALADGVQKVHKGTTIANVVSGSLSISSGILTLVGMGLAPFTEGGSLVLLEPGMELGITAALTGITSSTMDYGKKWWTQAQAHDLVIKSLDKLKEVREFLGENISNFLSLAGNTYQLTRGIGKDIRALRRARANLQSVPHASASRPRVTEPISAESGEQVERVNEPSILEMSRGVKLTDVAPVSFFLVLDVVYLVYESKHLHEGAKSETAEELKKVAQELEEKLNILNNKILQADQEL
protocol.text: Rescue of HEK293 cell death caused by overexpression of APOL1 (CellTiter-Glo luminescence), HEK293/T-REx APOL1 G2/clone #2
test.context: reversal of cell death caused by overexpression of APOL1; geometric mean of at least 2 assay runs, † = single assay run (technical duplicate)
Kindly state EC50 for each of the entries shown.
Numbers only, in nM.

CC1CC(COc2ccc(S(C)(=O)=O)cc2)CN1CCc1cc(Cl)cc(C#N)c1 (single isomer, unassigned) [Compound 201]: 1680
CS(=O)(=O)c1ccc(OC[C@@H](O)CN2CCCCC2Cc2cccc(Cl)c2)cc1 (single isomer, unassigned) [Compound 64]: 1120
CN=S(C)(=O)c1ccc(OC[C@H]2C[C@@H](C)N(CCc3cccc(C#N)c3)C2)cc1 (single isomer, unassigned) [Compound 159]: 24.9
N#Cc1cc(Cl)cc(CCN2CCN[C@H](COc3ccc(S(=O)(=O)CCO)cc3)C2)c1 [Compound 182]: 399
C[C@@]1(O)CN(CCc2cccc(Cl)c2)C[C@H]1COc1ccc(S(C)(=O)=O)cc1 (racemic) [Compound 205]: 1590
CN(c1ccc(OC[C@@H](O)CN2CCC(c3cccc(Cl)c3)C2(C)C)cc1)S(C)(=O)=O (some centres unmarked) [Compound 68]: 591

Parameters: items (list). Returns: EC50 for each item.
1. CS(=O)(=O)c1ccc(OC[C@@H]2CCCN(CCc3cccc(Cl)c3)C2)cc1 [Compound 15]
2. C[C@H]1CN(CCc2cccc(Cl)c2)C[C@@H]1COc1ccc(N(C)S(C)(=O)=O)cc1 (single isomer, unassigned) [Compound 47]

Marked response:
1: 567; 2: 516
